test.system: T1, MbpAgo WT (Mucilaginibacter paludis, UniProt H1YCU5 1-795)
T1 sequence: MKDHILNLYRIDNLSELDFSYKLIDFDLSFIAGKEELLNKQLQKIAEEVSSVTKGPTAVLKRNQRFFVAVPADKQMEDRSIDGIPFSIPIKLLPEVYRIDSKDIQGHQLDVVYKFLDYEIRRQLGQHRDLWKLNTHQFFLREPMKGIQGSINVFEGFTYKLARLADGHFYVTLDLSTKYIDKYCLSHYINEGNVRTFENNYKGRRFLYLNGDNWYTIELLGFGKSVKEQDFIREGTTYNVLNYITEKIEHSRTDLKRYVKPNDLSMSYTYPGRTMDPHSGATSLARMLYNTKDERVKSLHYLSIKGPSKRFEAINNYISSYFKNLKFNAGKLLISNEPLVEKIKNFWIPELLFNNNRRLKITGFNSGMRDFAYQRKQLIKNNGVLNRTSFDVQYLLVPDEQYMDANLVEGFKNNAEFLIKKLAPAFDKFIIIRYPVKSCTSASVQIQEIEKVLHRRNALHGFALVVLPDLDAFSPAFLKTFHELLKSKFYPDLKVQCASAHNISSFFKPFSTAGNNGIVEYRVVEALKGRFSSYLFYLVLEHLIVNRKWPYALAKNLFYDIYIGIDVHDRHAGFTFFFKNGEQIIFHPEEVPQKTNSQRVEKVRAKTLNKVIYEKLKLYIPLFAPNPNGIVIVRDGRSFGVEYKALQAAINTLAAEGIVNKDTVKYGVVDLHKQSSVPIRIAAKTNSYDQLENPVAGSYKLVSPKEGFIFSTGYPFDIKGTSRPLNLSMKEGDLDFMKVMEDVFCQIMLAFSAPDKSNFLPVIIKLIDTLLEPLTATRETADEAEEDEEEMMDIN
protocol.summary: EMSA
List of pKd values.
The meaning of pKd here: minus log10 of the concentration in molar units.

Field pKd (entry TGAGGTAGTAGGTTGT (ssDNA) [T-gDNA iFAM, 5'OH] ) reads 6.83

Field pKd (entry TGAGGTAGTAGGTTGT (ssDNA, 5' phosphate) [T-gDNA iFAM, 5'P] ) reads 6.95
